- test_summary: Study CL-005 in subjects with onychomycosis, plasma PK
- Type: in vivo
- test_conditions: human, 600 mg, Day 14, High Dose (600 mg), 12 weeks, read-out: AUC0-8
readout_name: AUC(0-t) (ng·h/mL)

query_smiles | readout_name | value_measured
O[C@@](Cn1cnnn1)(c1ccc(F)cc1F)C(F)(F)c1ccc(-c2ccc(OCC(F)(F)F)cc2)cn1 | AUC(0-t) | 59700

---

- test_summary: Study CL-017 plasma PK
- Format: in vivo, human
- test_conditions: human, plasma, oral; 3 × 150 mg (450 mg), Day 2; Median

compound | Tmax
O[C@@](Cn1cnnn1)(c1ccc(F)cc1F)C(F)(F)c1ccc(-c2ccc(OCC(F)(F)F)cc2)cn1 [Oteseconazole, oteseconazole] | 4 h

---

- test_summary: Study CL-001 single-dose escalation in healthy subjects, plasma PK
- Format: in vivo, human
- test_conditions: both sexes, human, plasma, po, 320 mg, Cohort 8, single oral 320 mg, Fed (high-fat breakfast); mean; read-out: Vz/F

query_smiles | Vd/F, L
O[C@@](Cn1cnnn1)(c1ccc(F)cc1F)C(F)(F)c1ccc(-c2ccc(OCC(F)(F)F)cc2)cn1 | 741

---

- test_summary: Study CL-001 single-dose escalation in healthy subjects, plasma PK
- Format: in vivo, human
- test_conditions: both sexes, human, plasma, po, 320 mg, Cohort 8, single oral 320 mg, Fed (high-fat breakfast); mean
readout_name: Cmax

query_smiles | value_measured
O[C@@](Cn1cnnn1)(c1ccc(F)cc1F)C(F)(F)c1ccc(-c2ccc(OCC(F)(F)F)cc2)cn1 | 988 ng/mL

---

- test_summary: Study CL-005 in subjects with onychomycosis, plasma PK
- Assay type: in vivo
- test_conditions: human, 300 mg, Day 14, Low Dose (300 mg), 12 weeks, read-out: AUC0-8

compound | unit_of_measurement | AUC(0-t)
O[C@@](Cn1cnnn1)(c1ccc(F)cc1F)C(F)(F)c1ccc(-c2ccc(OCC(F)(F)F)cc2)cn1 [Oteseconazole, oteseconazole] | ng·h/mL | 36700

---

- test_summary: Study CL-017 plasma PK
- Assay type: in vivo, human
- test_conditions: human, plasma, oral, Week 50 (end of follow-up period); read-out: mean (SD) plasma concentration

compound | concentration at 50 week, ng/mL
O[C@@](Cn1cnnn1)(c1ccc(F)cc1F)C(F)(F)c1ccc(-c2ccc(OCC(F)(F)F)cc2)cn1 [Oteseconazole, oteseconazole] | 873

---

- test_summary: Study CL-001 single-dose escalation in healthy subjects, plasma PK
- Type: in vivo, human
- test_conditions: both sexes, human, plasma, po, 320 mg, Cohort 7, single oral 320 mg, Fasted; mean
- Description: Study Oteseconazole CL-001 (hereafter referenced as “CL-001”) was a single-center, Phase 1, double-blind, randomized, placebo-controlled, dose-escalating study in healthy adult subjects. Sixty-four subjects (43 males and 21 females) between 18 and 55 years of age were enrolled in 8 dose groups. Within each dose group, 6 subjects received oteseconazole and 2 subjects received placebo. […] Dose escalation proceeded only after safety and PK of the previous dose were determined. […]

compound | AUC(0-inf) / µg·h/mL
O[C@@](Cn1cnnn1)(c1ccc(F)cc1F)C(F)(F)c1ccc(-c2ccc(OCC(F)(F)F)cc2)cn1 [Oteseconazole, oteseconazole] | 242

---

- test_summary: Study CL-001 single-dose escalation in healthy subjects, plasma PK
- Type: in vivo, human
- test_conditions: both sexes, human, plasma, po, 80 mg, Cohort 5, single oral 80 mg, fasted; mean; read-out: Vz/F
readout_name: Vd/F (L)

query_smiles | value_measured
O[C@@](Cn1cnnn1)(c1ccc(F)cc1F)C(F)(F)c1ccc(-c2ccc(OCC(F)(F)F)cc2)cn1 | 761

---

- test_summary: Study CL-017 plasma PK
- Assay type: in vivo, human
- test_conditions: human, plasma, oral, 600 mg, 4 × 150 mg (600 mg), Day 1; Geometric Mean, N 8; read-out: AUC0-24
readout_name: AUC(0-t)

query_smiles | readout_name | value_measured
O[C@@](Cn1cnnn1)(c1ccc(F)cc1F)C(F)(F)c1ccc(-c2ccc(OCC(F)(F)F)cc2)cn1 | AUC(0-t) | 20600 ng·h/mL

---

- test_summary: Study CL-001 single-dose escalation in healthy subjects, plasma PK
- Assay type: in vivo, human
- test_conditions: both sexes, human, plasma, po, 20 mg, Cohort 3, single oral 20 mg, fasted; mean

compound | unit_of_measurement | Cmax
O[C@@](Cn1cnnn1)(c1ccc(F)cc1F)C(F)(F)c1ccc(-c2ccc(OCC(F)(F)F)cc2)cn1 [Oteseconazole, oteseconazole] | ng/mL | 44.7

---

- test_summary: Study CL-017 plasma PK
- Assay type: in vivo, human
- test_conditions: human, plasma, oral, 450 mg, Day 2, as given in text; read-out: AUC0-8
readout_name: AUC(0-t) (µg·h/mL)

query_smiles | readout_name | value_measured
O[C@@](Cn1cnnn1)(c1ccc(F)cc1F)C(F)(F)c1ccc(-c2ccc(OCC(F)(F)F)cc2)cn1 | AUC(0-t) | 11.7

---

- test_summary: Study CL-003 in subjects with tinea pedis, plasma PK
- Format: in vivo, human
- test_conditions: human, plasma, High Dose 1200 mg/300 mg, Day 1

query_smiles | Tmax
O[C@@](Cn1cnnn1)(c1ccc(F)cc1F)C(F)(F)c1ccc(-c2ccc(OCC(F)(F)F)cc2)cn1 | 5 h

---

- test_summary: Study CL-001 single-dose escalation in healthy subjects, plasma PK
- Format: in vivo, human
- test_conditions: both sexes, human, plasma, po, 320 mg, Cohort 7, single oral 320 mg, Fasted; median; read-out: Tmax

query_smiles | Tmax / h
O[C@@](Cn1cnnn1)(c1ccc(F)cc1F)C(F)(F)c1ccc(-c2ccc(OCC(F)(F)F)cc2)cn1 | 5

---

- test_summary: Study CL-003 in subjects with tinea pedis, plasma PK
- Assay type: in vivo, human
- test_conditions: human, plasma, Mid Dose 600 mg/150 mg, Day 14; read-out: AUC0−8

compound | AUC(0-t), ng·h/mL
O[C@@](Cn1cnnn1)(c1ccc(F)cc1F)C(F)(F)c1ccc(-c2ccc(OCC(F)(F)F)cc2)cn1 [Oteseconazole, oteseconazole] | 16100

---

- test_summary: Study CL-003 in subjects with tinea pedis, plasma PK
- Type: in vivo, human
- test_conditions: human, plasma, High Dose 1200 mg/300 mg, Day 1

query_smiles | Cmax / ng/mL
O[C@@](Cn1cnnn1)(c1ccc(F)cc1F)C(F)(F)c1ccc(-c2ccc(OCC(F)(F)F)cc2)cn1 | 757

---

- test_summary: Study CL-005 in subjects with onychomycosis, plasma PK
- Format: in vivo
- test_conditions: human, 300 mg, Day 14, Low Dose (300 mg), 24 weeks
readout_name: Cmax (µg/mL)

compound | readout_name | value_measured
O[C@@](Cn1cnnn1)(c1ccc(F)cc1F)C(F)(F)c1ccc(-c2ccc(OCC(F)(F)F)cc2)cn1 [Oteseconazole, oteseconazole] | Cmax | 5.51

---

- test_summary: Study CL-006 plasma PK
- Format: in vivo, human
- test_conditions: human, plasma; Day 7, 150 mg; 12 weeks; read-out: Tmax
- Text: Oteseconazole plasma concentrations continued to increase after the 7-day loading dose portion of the Maintenance Period until the end of dosing in an approximately dose-proportional manner FIG. 3. Mean plasma PK parameters on Day 7 of the Maintenance Period are presented by treatment group in Table 12.

compound | unit_of_measurement | Tmax
O[C@@](Cn1cnnn1)(c1ccc(F)cc1F)C(F)(F)c1ccc(-c2ccc(OCC(F)(F)F)cc2)cn1 [Oteseconazole, oteseconazole] | h | 4

---

- test_summary: Study CL-003 in subjects with tinea pedis, plasma PK
- Type: in vivo, human
- test_conditions: human, plasma, Low Dose 200 mg/50 mg, Day 14
readout_name: Tmax (h)

query_smiles | value_measured
O[C@@](Cn1cnnn1)(c1ccc(F)cc1F)C(F)(F)c1ccc(-c2ccc(OCC(F)(F)F)cc2)cn1 | 5

---

- test_summary: Study CL-004 plasma PK
- Format: in vivo, human
- test_conditions: human, plasma, 300 mg, 300 mg QD treatment group; read-out: median t1/2 (converted)

compound | half-life, days
O[C@@](Cn1cnnn1)(c1ccc(F)cc1F)C(F)(F)c1ccc(-c2ccc(OCC(F)(F)F)cc2)cn1 [Oteseconazole, oteseconazole] | 75.9

---

- test_summary: Study CL-001 single-dose escalation in healthy subjects, plasma PK
- Format: in vivo, human
- test_conditions: both sexes, human, plasma, po, 40 mg, Cohort 4, single oral 40 mg, fasted; mean; read-out: Vz/F

query_smiles | Vd/F, L
O[C@@](Cn1cnnn1)(c1ccc(F)cc1F)C(F)(F)c1ccc(-c2ccc(OCC(F)(F)F)cc2)cn1 | 939

---

- test_summary: Study CL-006 plasma PK
- Type: in vivo, human
- test_conditions: human, plasma, 150 mg, Day 7, 150 mg; 12 weeks; read-out: AUC0-8

query_smiles | AUC(0-t)
O[C@@](Cn1cnnn1)(c1ccc(F)cc1F)C(F)(F)c1ccc(-c2ccc(OCC(F)(F)F)cc2)cn1 | 9120 ng·h/mL
